biological target: Delta-type opioid receptor (Homo sapiens); assay: Binding affinity at delta opioid receptor (unknown origin)
Non-standard residues stand in square brackets, D forms with d. Residues, ends and D or L forms follow the SMILES beside them. *: point of attachment. Dmt = Cc1cc(O)cc(C)c1C[C@H](N)C(=O)O; Tic = O=C(O)[C@@H]1Cc2ccccc2CN1; NHBn = c1ccc(CN*)cc1; NHPh = c1ccc(N*)cc1
Hi there, I'd appreciate the recorded pKi for every entry that follows.
To interpret pKi, take it as minus log10 of a concentration measured in moles per litre.

Specify measured pKi for Cc1cc(O)cc(C)c1C[C@H](N)C(=O)N1Cc2ccccc2C[C@H]1C(=O)NCC(=O)Nc1ccccc1 (H-[Dmt]-[Tic]-Gly-NHPh) .
9.80

Specify measured pKi for NC(=O)[C@H]1CSCSC[C@H](NC(=O)[C@@H](N)Cc2ccc(O)cc2)C(=O)N[C@@H](Cc2ccccc2)C(=O)N[C@@H](Cc2ccc3ccccc3c2)C(=O)N1 .
9.32

Specify measured pKi for Cc1cc(O)cc(C)c1C[C@H](N)C(=O)N1Cc2ccccc2C[C@@H]1C(=O)NCc1nc2ccccc2[nH]1 .
10.68

Specify measured pKi for Cc1cc(O)cc(C)c1C[C@H](N)C(=O)N1Cc2ccccc2C[C@H]1C(=O)NCC(=O)NCc1ccccc1 (H-[Dmt]-[Tic]-Gly-NHBn) .
9.80

* * *

molecular target: Delta-type opioid receptor (Homo sapiens, UniProt P41143); test: Antagonist activity at […] delta opioid receptor in CD1 mouse assessed as electrically induced twitches
Sequence (P41143 whole entry): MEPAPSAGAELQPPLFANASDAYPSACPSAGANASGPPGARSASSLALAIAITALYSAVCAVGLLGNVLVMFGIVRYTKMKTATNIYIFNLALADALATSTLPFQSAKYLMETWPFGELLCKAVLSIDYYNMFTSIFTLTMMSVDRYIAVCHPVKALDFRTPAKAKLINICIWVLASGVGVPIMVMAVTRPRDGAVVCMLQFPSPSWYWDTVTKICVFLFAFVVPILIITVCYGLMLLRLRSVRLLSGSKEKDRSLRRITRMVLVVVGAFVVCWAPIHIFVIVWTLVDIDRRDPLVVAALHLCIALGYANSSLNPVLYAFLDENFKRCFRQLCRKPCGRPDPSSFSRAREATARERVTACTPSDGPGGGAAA
endpoint: pIC50
To interpret pIC50, take it as minus log10 of a concentration measured in moles per litre.

Specify measured pIC50 for C=CCN1C[C@H](C)N([C@@H](c2cccc(O)c2)c2cccc(C(=O)N(C)c3cccc(F)c3)c2)C[C@H]1C .
8.47

* * *

molecular target: Mu-type opioid receptor (Cavia porcellus); experiment: Agonist activity at mu-opioid receptor in guinea pig ileum assessed as inhibition of electrically induced twitches; assay type: tissue-based
Sequence (P97266 whole entry): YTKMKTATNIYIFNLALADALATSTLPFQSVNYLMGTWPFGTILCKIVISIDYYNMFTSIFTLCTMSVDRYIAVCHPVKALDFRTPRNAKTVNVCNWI
Non-standard residues stand in square brackets, D forms with d. Residues, ends and D or L forms follow the SMILES beside them. *: point of attachment. Dmt = Cc1cc(O)cc(C)c1C[C@H](N)C(=O)O; Tic = O=C(O)[C@@H]1Cc2ccccc2CN1; NHBn = c1ccc(CN*)cc1
endpoint: EC50
A complete answer gives the number followed by the unit.

Specify measured EC50 for Cc1cc(O)cc(C)c1C[C@H](N)C(=O)N1Cc2ccccc2C[C@H]1C(=O)NCC(=O)NCc1ccccc1 (H-[Dmt]-[Tic]-Gly-NHBn) .
31.6 nM

* * *

biological target: Delta-type opioid receptor (Homo sapiens); test: Displacement of [3H]DPDPE from human delta opioid receptor expressed in CHO cells; format: cell-based
endpoint: pKi
To interpret pKi, take it as minus log10 of a concentration measured in moles per litre.

Specify measured pKi for CN1CC[C@]23c4c5ccc(O)c4O[C@@]2(CO)C(=O)CC[C@@]3(O)[C@H]1C5 .
6.68

* * *

target: Delta-type opioid receptor (Homo sapiens); test: Partial agonist activity at delta opioid receptor (unknown origin) assessed as inhibition of adenylyl cyclase activity
endpoint: pEC50
To interpret pEC50, take it as minus log10 of a concentration measured in moles per litre.

Specify measured pEC50 for NC(=O)[C@H]1CSCSC[C@H](NC(=O)[C@@H](N)Cc2ccc(O)cc2)C(=O)N[C@@H](Cc2ccccc2)C(=O)N[C@@H](Cc2ccc3ccccc3c2)C(=O)N1 .
7.44
